# target_or_system: recombinant human PIM1 (Homo sapiens (Human), UniProt P11309)
# Sequence (P11309 whole entry): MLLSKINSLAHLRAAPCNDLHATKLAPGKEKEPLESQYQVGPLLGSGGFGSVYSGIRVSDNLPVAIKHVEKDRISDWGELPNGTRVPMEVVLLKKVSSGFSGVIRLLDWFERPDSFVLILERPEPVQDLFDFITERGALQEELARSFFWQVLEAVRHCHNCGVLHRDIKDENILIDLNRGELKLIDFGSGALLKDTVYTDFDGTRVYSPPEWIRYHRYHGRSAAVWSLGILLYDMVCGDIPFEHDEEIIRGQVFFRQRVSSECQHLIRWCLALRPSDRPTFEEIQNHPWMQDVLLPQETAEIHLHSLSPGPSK
# test: PIM-1 kinase activity in cell-free in vitro assay
# Type: biochemical
# test_conditions: 500 nM compound, cell-free assay; read-out: PIM-1: % inh 500 nM
metric_name: inhibition at 0.5 µM

1. CC(=O)N1CCN(c2nc3cc(C#N)ccc3c3sccc23)CC1 | 7.13%
2. O=C(O)c1ccc2c(c1)nc(NCCc1ccccc1)c1cccnc12 | 13.7%
3. C#Cc1cccc(Nc2nc3cc(C(=O)O)ccc3c3cnc(NCC4CC4)nc23)c1 [drawing 1606] | 3.08%
4. CCN1CCCC1CNc1nc2cc(C(=O)O)ccc2c2sccc12 (stereo not shown) | 93.3%
5. N#Cc1ccc2c(c1)nc(N1CCC(N)C1)c1ccsc12 (stereo not shown) | 9.1%
6. CC(C)(C)OC(=O)N1CCN(C(=O)c2ccc3c(c2)nc(Nc2cccc(Cl)c2)c2ccncc23)CC1 | -7.41%
7. COc1ccc(Nc2ncc3c(n2)c(NC2CC2)nc2cc(C(=O)O)ccc23)cc1Cl | 38.7%
8. O=C(O)c1ccc2c(c1)nc(NCCn1ccnc1)c1ccncc12 | 51.8%
9. O=C(O)c1ccc2c(c1)nc(Nc1ccc(F)c(Cl)c1)c1nccnc12 | -0.602%
10. CCCNc1ncc2c(n1)c(NC1CC1)nc1cc(C(=O)O)ccc12 [drawing 1645] | 13.2%

----------
# target_or_system: recombinant human CK2 (Homo sapiens (Human))
# Sequence (P68400 whole entry): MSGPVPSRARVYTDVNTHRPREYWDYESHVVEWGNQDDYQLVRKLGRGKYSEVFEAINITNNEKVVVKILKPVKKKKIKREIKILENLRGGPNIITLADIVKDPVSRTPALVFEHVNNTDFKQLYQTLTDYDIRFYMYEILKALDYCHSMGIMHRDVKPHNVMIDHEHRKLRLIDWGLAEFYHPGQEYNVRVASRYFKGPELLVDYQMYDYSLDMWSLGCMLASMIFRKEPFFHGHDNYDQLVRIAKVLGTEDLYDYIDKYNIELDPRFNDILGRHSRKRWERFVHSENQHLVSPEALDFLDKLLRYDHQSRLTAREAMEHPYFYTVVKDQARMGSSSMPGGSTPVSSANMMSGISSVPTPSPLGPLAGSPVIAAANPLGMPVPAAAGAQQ
# Sequence (P67870 whole entry partner): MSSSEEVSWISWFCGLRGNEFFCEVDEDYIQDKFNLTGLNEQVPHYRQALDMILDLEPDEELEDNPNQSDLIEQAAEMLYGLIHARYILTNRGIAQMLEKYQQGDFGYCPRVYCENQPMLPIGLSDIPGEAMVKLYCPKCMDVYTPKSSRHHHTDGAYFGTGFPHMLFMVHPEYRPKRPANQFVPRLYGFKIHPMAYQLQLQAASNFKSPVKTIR
# test: CK2 assay (cell-free, 33P-ATP filter plate)
# Format: biochemical
# test_conditions: 500 nM compound, cell-free assay; read-out: CK2: % inh 500 nM
Measured inhibition at 0.5 µM of individual entries
metric_name: inhibition at 0.5 µM (%)

1) CCCNc1nc2cc(-c3nnn[nH]3)ccc2c2sccc12 | 31.1
2) N#Cc1ccc2c(c1)nc(Oc1ccc(F)cc1)c1ccsc12 | -3.78
3) O=C(O)c1ccc2c(c1)nc(Nc1ccc(F)c(Cl)c1)c1ncccc12 | 12.3
4) CN(C)CCNc1nc2cc(C(=O)NC3CCCCC3)ccc2c2sccc12 | -10.6
5) CN(C)CCOc1nc2cc(C#N)ccc2c2sccc12 | -18
6) CN(C)CCNc1nc2cc(-c3nnn[nH]3)ccc2c2sc(Br)cc12 | 24.8
7) CN(C)CCNc1nc2cc(C(=O)NC3CC3)ccc2c2sccc12 | 1.39
8) NC(=O)c1cccc2c1nc(Nc1cccc(Cl)c1)c1ccncc12 [drawing 2002] | 36.6
9) N#Cc1ccc2c(c1)nc(NCCN(CCO)CCO)c1ccsc12 | -9.97
10) O=C(O)c1ccc2c(c1)nc(NCCc1ccccc1)c1cnccc12 | -0.531
11) COC(=O)c1cccc2c1nc(Cl)c1ccncc12 [drawing 2000] | 10.1

----------
# System: K-562
# test: Cell proliferation modulatory activity, K-562
# Type: cell-based
# test_conditions: Homo sapiens, K562; Table 45; read-out: K-562 IC50
pIC50: −log10 of the molar value.
Measured pIC50 of individual entries
metric_name: pIC50

1. NS(=O)(=O)c1cccc(Nc2nc3c(-c4nc[nH]n4)cccc3c3cnccc23)c1 | < 5.00
2. NC(=O)c1cccc2c1nc(Nc1cccc(F)c1)c1ccncc12 | > 6.00
3. COCCOc1ccc(Nc2nc3c(-c4nnc[nH]4)cccc3c3cnccc23)cc1 | < 5.00
4. COc1ccc(Nc2nc3c(-c4nc[nH]n4)cccc3c3cnccc23)cc1 | > 6.30
